study.target: Polyadenylate-binding protein 1 (Homo sapiens)
Sequence (P11940 whole entry, the tested form may be a part): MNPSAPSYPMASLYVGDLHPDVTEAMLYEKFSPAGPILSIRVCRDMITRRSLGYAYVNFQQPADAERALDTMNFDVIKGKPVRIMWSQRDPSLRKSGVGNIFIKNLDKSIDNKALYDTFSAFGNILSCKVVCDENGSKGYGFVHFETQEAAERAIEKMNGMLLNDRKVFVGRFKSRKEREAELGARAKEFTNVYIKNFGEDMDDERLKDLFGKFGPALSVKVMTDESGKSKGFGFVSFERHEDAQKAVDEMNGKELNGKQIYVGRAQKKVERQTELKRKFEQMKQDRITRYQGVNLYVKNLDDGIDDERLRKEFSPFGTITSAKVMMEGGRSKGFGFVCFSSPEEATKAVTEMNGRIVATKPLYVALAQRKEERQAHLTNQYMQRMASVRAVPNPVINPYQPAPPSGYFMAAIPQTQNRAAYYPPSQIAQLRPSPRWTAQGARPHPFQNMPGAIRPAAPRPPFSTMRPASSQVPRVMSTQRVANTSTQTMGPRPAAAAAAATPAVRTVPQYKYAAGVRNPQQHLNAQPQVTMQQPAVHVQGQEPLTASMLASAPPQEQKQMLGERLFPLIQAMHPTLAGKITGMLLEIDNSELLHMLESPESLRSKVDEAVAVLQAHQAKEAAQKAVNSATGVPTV
test.description: MLLE domain peptide-binding blockers, IC50 – biochemical, fluorescence polarization, FITC-PAM2 peptide, dose response (AID 602259)
Type: functional
experimental.parameters: read-out: IC50_Mean
Activity calls are given as the source filed them. No stated cut-off is given here; in the data, active = IC50 of 20 µM or less and inactive = more.
measurement.kind: IC50

input: Quick one: IC50 of CCC(=O)NC(=S)Nc1c(C)cc(Br)cc1C ?
output: > 66 µM (inactive)

input: Look up IC50: O=C(NCCO)c1ccc2nc(-c3ccco3)c(-c3ccco3)nc2c1
output: > 66 µM (inactive)

input: I'd like to know its IC50. The molecule in question is CCN1CSC(=S)N(Cc2ccc(OC)cc2)C1
output: > 66 µM (inactive)

input: Sample COc1cc2c3c(c1)/C(=C1/SC(NC(C)=O)=NC1=O)C(=O)N3C(C)(C)C=C2C — what was its IC50?
output: > 66 µM (inactive)

input: Tell me the measured IC50 of CS(=O)(=O)c1cccc(C(=O)Nc2nnc(C3=COCCO3)o2)c1 , please.
output: > 66 µM (inactive)

input: GET /values?readout=IC50&item= COC(=O)c1scc2c(O)cc(C(F)(F)F)nc12
output: 35.7 µM (inactive)
